Source: paper PMC5976803

The entries below are paired with their reported ratio to parent.
Molecular target: T1, anti-CLDN-5 ECR mAb clone 1B3
T1 chain 1: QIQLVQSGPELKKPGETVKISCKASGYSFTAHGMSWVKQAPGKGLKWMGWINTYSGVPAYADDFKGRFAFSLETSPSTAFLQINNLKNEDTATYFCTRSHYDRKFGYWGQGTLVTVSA
T1 chain 2: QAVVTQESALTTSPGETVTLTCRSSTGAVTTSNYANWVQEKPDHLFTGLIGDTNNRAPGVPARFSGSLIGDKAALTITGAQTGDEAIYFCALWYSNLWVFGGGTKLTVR
Assay: proteoliposome ELISA
Details: chain shown with the change;; parent: est. 1.0; read off a plot
QUANTITY: ratio to parent

{"BINDER": "AGIA-tagged human CLDN-5, cell-free synthesized proteoliposome, O00501 Q156A (protein) MGSAALEILGLVLCLVGWGGLILACGLPMWQVTAFLDHNIVTAQTTWKGLWMSCVVQSTGHMQCKVYDSVLALSTEVQAARALTVSAVLLAFVALFVTLAGAQCTTCVAPGPAKARVALTGGVLYLFCGLLALVPLCWFANIVVREFYDPSVPVSAKYELGAALYIGWAATALLMVGGCLLCCGAWVCTGRPDLSFPVKYSAPRRPTATGDYDKKNYV", "REPORTED_VALUE": 1.2}
{"BINDER": "AGIA-tagged human CLDN-5, cell-free synthesized proteoliposome, O00501 V152A (protein) MGSAALEILGLVLCLVGWGGLILACGLPMWQVTAFLDHNIVTAQTTWKGLWMSCVVQSTGHMQCKVYDSVLALSTEVQAARALTVSAVLLAFVALFVTLAGAQCTTCVAPGPAKARVALTGGVLYLFCGLLALVPLCWFANIVVREFYDPSAPVSQKYELGAALYIGWAATALLMVGGCLLCCGAWVCTGRPDLSFPVKYSAPRRPTATGDYDKKNYV", "REPORTED_VALUE": 0.25}
{"BINDER": "AGIA-tagged human CLDN-5, cell-free synthesized proteoliposome, O00501 Y148A (protein) MGSAALEILGLVLCLVGWGGLILACGLPMWQVTAFLDHNIVTAQTTWKGLWMSCVVQSTGHMQCKVYDSVLALSTEVQAARALTVSAVLLAFVALFVTLAGAQCTTCVAPGPAKARVALTGGVLYLFCGLLALVPLCWFANIVVREFADPSVPVSQKYELGAALYIGWAATALLMVGGCLLCCGAWVCTGRPDLSFPVKYSAPRRPTATGDYDKKNYV", "REPORTED_VALUE": 0.17}
{"BINDER": "AGIA-tagged human CLDN-5, cell-free synthesized proteoliposome, O00501 D149A (protein) MGSAALEILGLVLCLVGWGGLILACGLPMWQVTAFLDHNIVTAQTTWKGLWMSCVVQSTGHMQCKVYDSVLALSTEVQAARALTVSAVLLAFVALFVTLAGAQCTTCVAPGPAKARVALTGGVLYLFCGLLALVPLCWFANIVVREFYAPSVPVSQKYELGAALYIGWAATALLMVGGCLLCCGAWVCTGRPDLSFPVKYSAPRRPTATGDYDKKNYV", "REPORTED_VALUE": 0.17}
{"BINDER": "AGIA-tagged human CLDN-5, cell-free synthesized proteoliposome, O00501 S151A (protein) MGSAALEILGLVLCLVGWGGLILACGLPMWQVTAFLDHNIVTAQTTWKGLWMSCVVQSTGHMQCKVYDSVLALSTEVQAARALTVSAVLLAFVALFVTLAGAQCTTCVAPGPAKARVALTGGVLYLFCGLLALVPLCWFANIVVREFYDPAVPVSQKYELGAALYIGWAATALLMVGGCLLCCGAWVCTGRPDLSFPVKYSAPRRPTATGDYDKKNYV", "REPORTED_VALUE": 0.75}
{"BINDER": "AGIA-tagged human CLDN-5, cell-free synthesized proteoliposome, O00501 F147A (protein) MGSAALEILGLVLCLVGWGGLILACGLPMWQVTAFLDHNIVTAQTTWKGLWMSCVVQSTGHMQCKVYDSVLALSTEVQAARALTVSAVLLAFVALFVTLAGAQCTTCVAPGPAKARVALTGGVLYLFCGLLALVPLCWFANIVVREAYDPSVPVSQKYELGAALYIGWAATALLMVGGCLLCCGAWVCTGRPDLSFPVKYSAPRRPTATGDYDKKNYV", "REPORTED_VALUE": 2.4}
{"BINDER": "AGIA-tagged human CLDN-5, cell-free synthesized proteoliposome, O00501 P150A (protein) MGSAALEILGLVLCLVGWGGLILACGLPMWQVTAFLDHNIVTAQTTWKGLWMSCVVQSTGHMQCKVYDSVLALSTEVQAARALTVSAVLLAFVALFVTLAGAQCTTCVAPGPAKARVALTGGVLYLFCGLLALVPLCWFANIVVREFYDASVPVSQKYELGAALYIGWAATALLMVGGCLLCCGAWVCTGRPDLSFPVKYSAPRRPTATGDYDKKNYV", "REPORTED_VALUE": 1.8}
{"BINDER": "AGIA-tagged human CLDN-5, cell-free synthesized proteoliposome, O00501 E146A (protein) MGSAALEILGLVLCLVGWGGLILACGLPMWQVTAFLDHNIVTAQTTWKGLWMSCVVQSTGHMQCKVYDSVLALSTEVQAARALTVSAVLLAFVALFVTLAGAQCTTCVAPGPAKARVALTGGVLYLFCGLLALVPLCWFANIVVRAFYDPSVPVSQKYELGAALYIGWAATALLMVGGCLLCCGAWVCTGRPDLSFPVKYSAPRRPTATGDYDKKNYV", "REPORTED_VALUE": 0.49}
